Recorded pIC50 values for a group of compounds are listed next.
- assay_system: Human C5 (Homo sapiens)
- Construct: purchased Complement Technology
- experiment_description: Red blood cell (RBC) hemolysis assay, luminescent (Example 13, Table 22)
- Type: cell-based
- condition_details: sheep EA cells, […] C5-depleted human serum, 0.5 nM human C5, 1 hour 37° C., luminescence
Formally, pIC50 is defined as -log10 of the concentration c, with c in mol/L.

[[record]]
compound = "CCCCCOc1cc(N2CCCN(Cc3cccc4c3c(C)cn4CC(=O)N(C)C)C2=O)ccc1OC [CU0231]"
readout_type = "pIC50"
value_measured = 7.69

[[record]]
compound = "CCCCCOc1cc(N2CCCN(Cc3ccnc4[nH]ccc34)C2=O)ccc1OC [CU0032]"
readout_type = "pIC50"
value_measured = 7.29


Input line: Would you mind telling me what pIC50 value was observed for CCCCCOc1cc(N2CCN(Cc3ccnc4c3ccn4CC(=O)N3CCCOCC3)C2=O)ccc1OC [CU0052] ?
Output line: 7.21

Input line: Request: CCCCCOc1cc(N2CCCN(Cc3ccc(CC(=O)NC4CCN(C(C)C)CC4)cc3OC)C2=O)ccc1OC [CU0109]
Output line: 7.73

Input line: Also COc1ccc(N2CCCN(Cc3ccnc4c3ccn4CC(=O)N(C)C)C2=O)cc1OCc1ccccc1 [CU0252] ?
Output line: 6.08

Input line: Param item: C/C=C\CCCOc1cc(N2CCCN(Cc3cc(F)ccc3OC)C2=O)ccc1OC [CU0225]
Output line: 7.54

Input line: Input CCCCCOc1cc(N2CCCN(Cc3ccc(CC(=O)N4CCO[C@H](COC)C4)cc3OC)C2=O)ccc1OC [CU0196]
Output line: 7.68

Input line: For CCCCCOc1cc(N2CCCN(Cc3ccc(C)c4c3ccn4CC(=O)N(C)C)C2=O)ccc1OC [CU0229] then?
Output line: 7.05

###

- assay_system: Human C5 (Homo sapiens)
- Construct: purchased Complement Technology
- experiment_description: Red blood cell (RBC) hemolysis assay, luminescent (Example 28, Table 32)
- Format: cell-based
- condition_details: sheep EA cells, 1.5% C5-depleted human serum, 0.5 nM human C5, 1 hour at 37° C., luminescence (Table 32)
# pIC50 values compiled below
Reminder that pIC50 means the negative base-10 logarithm of the concentration expressed in mol/L.

Here's what some known entries look like.
[[record]]
mol = "CCCCCOc1cc(N2CC[C@H](C)N(Cc3ccnc4c3c(Cl)cn4CCOCCOCCOC)C2=O)ccc1OC"
value_measured = 8.77

[[record]]
mol = "COc1cc(CC(=O)N2CCN(C)CC2)ccc1CN1C(=O)N(c2ccc(OC)c(OCCCC3CC3)c2)CC[C@@H]1C"
value_measured = 8.74

[[record]]
mol = "CCCCCOc1cc(N2CC[C@H](C)N(Cc3ccnc4c3c(Cl)cn4CC(=O)N3CCOC3)C2=O)ccc1OC"
value_measured = 8.89

[[record]]
mol = "CCCCCOc1cc(N2C[C@@H](C)CN(Cc3ccc(CC(=O)N4CCCC4)cc3OC)C2=O)ccc1OC"
value_measured = 7.78

[[record]]
mol = "COc1cc(CC(=O)N(C)[C@H]2CCN(CCF)C2)ccc1CN1C(=O)N(c2ccc(OC)c(OCCCC3CC3)c2)CC[C@@H]1C"
value_measured = 8.52


Input line: So what does the record say about pIC50 for COc1cc(CC(=O)N[C@@H]2CCNC2)ccc1CN1C(=O)N(c2ccc(OC)c(OCCCC3CC3)c2)CC[C@@H]1C ?
Output line: 8.51

Input line: Another compound to look at: CCCCCOc1cc(N2CC[C@H](C)N(Cc3ccnc4c3c(Cl)cn4CC(=O)N(C)C)C2=O)c(F)cc1OC
Output line: 8.36

###

- assay_system: Human C5 (Homo sapiens, UniProt P01031)
- Construct: purchased Complement Technology
- Sequence (P01031 19-1676): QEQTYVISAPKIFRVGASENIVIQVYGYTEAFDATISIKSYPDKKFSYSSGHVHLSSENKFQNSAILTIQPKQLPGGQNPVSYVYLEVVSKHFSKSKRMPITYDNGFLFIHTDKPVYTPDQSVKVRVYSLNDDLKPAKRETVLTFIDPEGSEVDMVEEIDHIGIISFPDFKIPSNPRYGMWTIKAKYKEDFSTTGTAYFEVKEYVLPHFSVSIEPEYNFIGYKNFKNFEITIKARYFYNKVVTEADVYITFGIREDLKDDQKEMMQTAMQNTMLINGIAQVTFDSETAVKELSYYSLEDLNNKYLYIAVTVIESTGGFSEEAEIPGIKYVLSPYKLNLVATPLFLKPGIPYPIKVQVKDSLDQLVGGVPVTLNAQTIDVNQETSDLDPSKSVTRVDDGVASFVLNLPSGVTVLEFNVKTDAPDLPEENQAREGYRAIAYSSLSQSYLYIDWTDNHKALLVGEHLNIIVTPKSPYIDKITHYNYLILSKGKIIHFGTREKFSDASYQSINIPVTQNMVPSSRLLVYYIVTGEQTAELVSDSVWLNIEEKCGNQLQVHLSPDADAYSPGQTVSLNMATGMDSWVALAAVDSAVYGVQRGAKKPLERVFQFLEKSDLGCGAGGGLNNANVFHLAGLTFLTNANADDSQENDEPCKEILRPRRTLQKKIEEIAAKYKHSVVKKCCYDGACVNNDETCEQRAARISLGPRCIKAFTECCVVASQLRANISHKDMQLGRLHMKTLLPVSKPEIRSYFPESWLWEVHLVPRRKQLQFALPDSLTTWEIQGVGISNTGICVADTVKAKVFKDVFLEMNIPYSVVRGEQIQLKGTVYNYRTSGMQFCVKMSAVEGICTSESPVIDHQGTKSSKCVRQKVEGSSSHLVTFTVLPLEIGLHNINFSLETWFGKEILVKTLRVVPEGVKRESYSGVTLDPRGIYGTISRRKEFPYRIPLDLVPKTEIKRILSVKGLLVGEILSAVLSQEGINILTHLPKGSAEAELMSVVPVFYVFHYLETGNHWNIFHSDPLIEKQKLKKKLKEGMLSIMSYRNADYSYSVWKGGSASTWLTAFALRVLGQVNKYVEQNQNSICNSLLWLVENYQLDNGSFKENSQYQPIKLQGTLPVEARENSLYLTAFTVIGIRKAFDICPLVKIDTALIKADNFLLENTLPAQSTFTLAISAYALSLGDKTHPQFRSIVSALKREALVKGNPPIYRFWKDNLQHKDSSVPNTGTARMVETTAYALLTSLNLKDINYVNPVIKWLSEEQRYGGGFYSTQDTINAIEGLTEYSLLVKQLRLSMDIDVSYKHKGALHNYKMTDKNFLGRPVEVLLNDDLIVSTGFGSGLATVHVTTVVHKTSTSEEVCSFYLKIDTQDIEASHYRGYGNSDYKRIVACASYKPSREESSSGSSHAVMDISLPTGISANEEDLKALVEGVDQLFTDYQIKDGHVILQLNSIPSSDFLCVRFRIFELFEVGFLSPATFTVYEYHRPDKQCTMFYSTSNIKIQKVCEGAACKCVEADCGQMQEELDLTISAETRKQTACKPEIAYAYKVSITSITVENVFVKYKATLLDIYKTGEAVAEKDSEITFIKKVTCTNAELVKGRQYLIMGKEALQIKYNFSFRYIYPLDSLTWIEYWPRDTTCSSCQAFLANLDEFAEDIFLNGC
- experiment_description: Red blood cell (RBC) hemolysis assay, luminescent (Example 13, Table 22)
- Assay type: cell-based
- condition_details: sheep EA cells, […] C5-depleted human serum, 0.5 nM human C5, 1 hour 37° C., luminescence
pIC50: −log10 of the molar value.
So basically: pIC50 at 7 or higher? That is criterion met. Lower than 7? That is criterion not met.

# count of solved cases: 3
[[record]]
molecule = "CCCCCOc1cc(N2CCCN(Cc3cccc(N4CCOCC4)c3F)C2=O)ccc1OC [CU0132]"
assay_system = "Human C5 (Homo sapiens, UniProt P01031)"
assigned_label = "criterion not met"

[[record]]
molecule = "CCCCCOc1cc(N2CCCN(Cc3ccc(CC(=O)O)cc3OC)C2=O)ccc1OC [CU0102]"
assay_system = "Human C5 (Homo sapiens, UniProt P01031)"
assigned_label = "criterion met"

[[record]]
molecule = "CCCCCOc1cc(N2CCCN(Cc3ccc(Cc4nnnn4C)cc3OC)C2=O)ccc1OC [CU0211]"
assay_system = "Human C5 (Homo sapiens, UniProt P01031)"
assigned_label = "criterion met"


Input line: Does the molecule CCCCCOc1cc(N2CCCN(Cc3cccc4c3ccn4CC(=O)N3CCOC(C)(C)C3)C2=O)ccc1OC [CU0030] have recorded pIC50 that is 7 or more?
Output line: criterion met

Input line: CCCCCOc1cc(N2CCCN(Cc3cc(OC)cc(C4=CCNCC4)c3)C2=O)ccc1OC [CU0156] , same question.
Output line: criterion not met

Input line: Would you kindly repeat that for COc1ccc(F)cc1CN1CCCN(c2ccc(OC)c(OCc3ccc(C)cc3)c2)C1=O [CU0180] ?
Output line: criterion not met

Input line: Entry to check: CCCCCOc1cc(N2CCCN(Cc3ccc(CCN4CCN(C)CC4)cc3OC)C2=O)ccc1OC [CU0178]
Output line: criterion met

Input line: Would you kindly repeat that for COc1cc(F)ccc1CN1CCCN(c2ccc(OC)c(OCc3ccccc3)c2)C1=O [CU0163] ?
Output line: criterion not met

###

- assay_system: Human C5 (Homo sapiens)
- Construct: purchased Complement Technology
- experiment_description: Surface plasmon resonance (SPR), immobilized human C5 (Example 9, Table 18)
- Type: binding
- condition_details: immobilized human C5, equilibrium dissociation constant; read-out: SPR C5 EQ KD
Recorded Kd values for a group of compounds are listed next.
Answer with the figure and its unit, nothing else.

// worked examples, Kd included
[[record]]
compound = "COc1ccc(NC(=O)NCc2cc(F)cc3[nH]ccc23)cc1OCCCC(C)C [Compound C5INH-0517]"
assay_system = "Human C5 (Homo sapiens)"
value_measured = "10.7 nM"

[[record]]
compound = "COc1ccc(NC(=O)N[C@@H](CO)c2ccccc2O)cc1OCCCC(C)C [Compound C5INH-0395]"
assay_system = "Human C5 (Homo sapiens)"
value_measured = "9 nM"

[[record]]
compound = "COc1ccc(NC(=O)NCc2ccc3c(c2)OCO3)cc1OCCCC(C)C [Compound C5INH-0330]"
assay_system = "Human C5 (Homo sapiens)"
value_measured = "2900 nM"


Please turn your attention to the following entry.
Input line: Look at this compound and give its reported Kd. COc1cc(CC(N)=O)c(NC(=O)N[C@@H](CO)c2ccccc2)cc1OCCCC(C)C [Compound C5INH-0422]
Output line: 1340 nM

###

- assay_system: Human C5 (Homo sapiens, UniProt P01031)
- Construct: purchased Complement Technology
- experiment_description: Red blood cell (RBC) hemolysis assay, luminescent (Example 28, Table 32)
- Assay type: cell-based
- condition_details: sheep EA cells, 1.5% C5-depleted human serum, 0.5 nM human C5, 1 hour at 37° C., luminescence (Table 32)
Some compounds, each annotated with its measured pIC50.
FYI, pIC50 means -log10 of a concentration in mol per litre.

[[record]]
compound = "CCCCCOc1cc(N2CC[C@H](C)N(Cc3cccc4c3c(Cl)cn4CC(=O)N3CCOC(CN(C)C)C3)C2=O)ccc1OC (stereo partly shown)"
value_measured = 8.64

[[record]]
compound = "COc1ccc(N2CC[C@H](C)N(Cc3cccc4c3c(Cl)cn4CC(=O)N(C)C)C2=O)cc1OCCCC1CCC1"
value_measured = 8.80

[[record]]
compound = "COc1cc(CC(=O)O)ccc1CN1C(=O)N(c2ccc(OC)c(OCCCC3CC3)c2)CC[C@@H]1C"
value_measured = 8.11


Now turn to the next compound.
Input line: # get_value(readout='pIC50', item= CCCCCOc1cc(N2CC[C@H](C)N(Cc3cccc4c3c(C)cn4CC(=O)N3CCCOCC3)C2=O)ccc1OC )
Output line: 9.00

###

# pIC50 values compiled below
- assay_system: Human C5 (Homo sapiens)
- Construct: purchased Complement Technology
- experiment_description: Red blood cell (RBC) hemolysis assay, luminescent (Example 24, Table 29)
- Assay type: cell-based
- condition_details: sheep EA cells, […] C5-depleted human serum, 0.5 nM human C5, 1 hour at 37° C., luminescence (Table 29)
Note on units: pIC50 is unitless, being -log10 of a concentration expressed in mol/L.

Take a look at these entries with their results.
[[record]]
compound = "CCCCCOc1cc(N2CC(Cn3cc(-c4cnccn4)cn3)CN(Cc3cc(F)ccc3OC)C2=O)ccc1OC (centres unmarked) [SC0032]"
assay_system = "Human C5 (Homo sapiens)"
readout_type = "pIC50"
value_measured = 7.00

[[record]]
compound = "CCCCCOc1cc(N2CC[C@H](C)N(Cc3cccc4c3ccn4CC(=O)N3CCCC3)C2=O)ccc1OC [SC0001]"
assay_system = "Human C5 (Homo sapiens)"
readout_type = "pIC50"
value_measured = 8.08

[[record]]
compound = "CCCCCOc1cc(N2CC3(COC3)CN(Cc3ccnc4c3ccn4CC(=O)N(C)C)C2=O)ccc1OC [SC0069]"
assay_system = "Human C5 (Homo sapiens)"
readout_type = "pIC50"
value_measured = 6.89


Input line: Item under review: CCCCCOc1cc(N2CC(Cn3cncn3)CN(Cc3cc(F)ccc3OC)C2=O)ccc1OC (centres unmarked) [SC0035] . Reported pIC50?
Output line: 6.91

Input line: Now try CCCCCOc1cc(N2CC[C@H](C)N(Cc3cccc4c3ccn4CC(=O)N(C)C)C2=O)ccc1OC [SC0008] .
Output line: 7.73

Input line: Then this compound: CCCCCOc1cc(N2CC(C)CN(Cc3ccc(CC(=O)N(C)C)cc3OC)C2=O)ccc1OC (centres unmarked) [SC0017]
Output line: 7.55

Input line: Now give it for CCCCCOc1cc(N2CC(C(=O)N3CCOCC3)CN(Cc3cc(F)ccc3OC)C2=O)ccc1OC (centres unmarked) [SC0051] too.
Output line: 6.96

Input line: CCCCCOc1cc(N2CC(CNC(=O)c3ccnn3C)CN(Cc3cc(F)ccc3OC)C2=O)ccc1OC (centres unmarked) [SC0057] ?
Output line: 7.32

Input line: CCCCCOc1cc(N2CC(CO)CN(Cc3ccc(Br)cc3OC)C2=O)ccc1OC (centres unmarked) [SC0027] ?
Output line: 7.19

Input line: What do you get for CCCCCOc1cc(N2CC3(COC3)CN(Cc3ccccc3OC)C2=O)ccc1OC [SC0066] ?
Output line: 7.40

Input line: # repeat for CCCCCOc1cc(N2CC3(CNC3)CN(Cc3cc(F)ccc3OC)C2=O)ccc1OC [SC0070]
Output line: 6.40

Input line: Moving on to CCCCCOc1cc(N2CC(COCc3ccncn3)CN(Cc3cc(F)ccc3OC)C2=O)ccc1OC (centres unmarked) [SC0023]
Output line: 6.95

Input line: Would you mind doing CCCCCOc1cc(N2CC(Cn3ccnc3)CN(Cc3cc(F)ccc3OC)C2=O)ccc1OC (centres unmarked) [SC0042] as well?
Output line: 6.59

Input line: What would you report for CCCCCOc1cc(N2CC[C@H](C)N(Cc3cccc4[nH]ccc34)C2=O)ccc1OC [SC0010] ?
Output line: 7.61

Input line: # iterate: CCCCCOc1cc(N2CC(CNC(=O)COC)CN(Cc3cc(F)ccc3OC)C2=O)ccc1OC (centres unmarked) [SC0056]
Output line: 7.37

Input line: And then CCCCCOc1cc(N2CC(COCC(N)=O)CN(Cc3cc(F)ccc3OC)C2=O)ccc1OC (centres unmarked) [SC0028] , what is it?
Output line: 7.27

Input line: # iterate: CCCCCOc1cc(N2C[C@H](C)CN(Cc3cc(F)ccc3OC)C2=O)ccc1OC [SC0020]
Output line: 7.18
